Reported log10(IC50) is given for each of the following molecules.
Target: Tyrosine-protein phosphatase non-receptor type 1 (Homo sapiens)
Note: values are log10 of IC50 expressed in nM.

molecule	reported.metric	experimental.value
O=C1CN(c2c(O)cc(CC3CCCCC3)cc2F)S(=O)(=O)C1	log10(IC50)	1.15

In the following, a different molecule is considered.
Ask | Request body: readout log10(IC50), system Tyrosine-protein phosphatase non-receptor type 1 (Homo sapiens), query O=S(=O)(O)C(F)(F)c1cccc(-c2ccc(-c3ccccc3)cc2)c1 . Return the value.
Reply | 3.90

###

Test: Selectivity ratio of IC50 for TCPTP to IC50 for PTP1B
reported.metric: Ratio IC50

Some entries whose results are on file:
compound	Ratio IC50
Cc1cc(CC(NS(=O)(=O)c2cccc(F)c2)C2=N[C@H](CCOc3ccccc3S(C)(=O)=O)CN2)ccc1C1CC(=O)NS1(=O)=O (some centres undefined)	1
CN(C)S(=O)(=O)c1ccc(CN(Cc2ccc(C(F)(F)P(=O)(O)O)c(Br)c2)S(=O)(=O)c2ccc(OCC(=O)O)cc2)cc1	1
COc1cc(/C=C2\SC(=S)N(c3cccc(Cl)c3)C2=O)cc([N+](=O)[O-])c1O	1.3

Would you kindly look at the next entry?
Ask | Can you share its Ratio IC50? I mean this compound: CNC(=O)[C@@H]1Cc2ccc(NS(=O)(=O)O)cc2CN1C(=O)CCc1cccc(NS(=O)(=O)O)c1
Reply | 1.9

###

Target: Tyrosine-protein phosphatase non-receptor type 1 (Homo sapiens)
Assay: Inhibition of PTP1B by competitive inhibition assay
reported.metric: Ki (nM)
Kindly answer with a numeric value in nM, unit omitted.

Ask | For COc1cc(/C=C2\SC(=S)N(c3cccc(Cl)c3)C2=O)cc([N+](=O)[O-])c1O , what is its reported Ki?
Reply | 1800

###

Each entry below carries its reported IC50.
Biological target: Tyrosine-protein phosphatase non-receptor type 2 (Homo sapiens)
Sequence (P17706 whole entry): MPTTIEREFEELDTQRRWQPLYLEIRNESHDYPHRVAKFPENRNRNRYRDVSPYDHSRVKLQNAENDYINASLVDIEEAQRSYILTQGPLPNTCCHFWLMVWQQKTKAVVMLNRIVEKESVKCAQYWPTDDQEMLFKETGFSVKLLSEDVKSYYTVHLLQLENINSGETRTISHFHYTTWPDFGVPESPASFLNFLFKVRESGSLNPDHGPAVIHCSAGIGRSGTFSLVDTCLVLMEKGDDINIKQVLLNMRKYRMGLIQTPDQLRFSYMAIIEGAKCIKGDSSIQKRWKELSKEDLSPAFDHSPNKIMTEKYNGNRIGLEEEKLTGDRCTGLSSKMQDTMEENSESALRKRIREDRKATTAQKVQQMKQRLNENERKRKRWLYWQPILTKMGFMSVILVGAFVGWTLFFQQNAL

Worked cases, answers included:
compound	IC50
Cc1cc(C[C@H](NS(=O)(=O)c2ccccc2)c2nc3ccccc3[nH]2)ccc1N1CC(=O)NS1(=O)=O	150 nM
Cc1cc(C[C@H](NS(=O)(=O)c2ccccc2)c2nc3ccccc3[nH]2)ccc1[C@@H]1CC(=O)NS1(=O)=O	25 nM

Would you kindly look at the next entry?
Ask | Kindly state the measured IC50 obtained for Cc1cc(CC(NS(=O)(=O)c2cccc(F)c2)C2=N[C@H](CCOc3ccccc3S(C)(=O)=O)CN2)ccc1C1CC(=O)NS1(=O)=O (stereo partly drawn) with Tyrosine-protein phosphatase non-receptor type 2 (Homo sapiens).
Reply | 25 nM

###

Sequence of the target: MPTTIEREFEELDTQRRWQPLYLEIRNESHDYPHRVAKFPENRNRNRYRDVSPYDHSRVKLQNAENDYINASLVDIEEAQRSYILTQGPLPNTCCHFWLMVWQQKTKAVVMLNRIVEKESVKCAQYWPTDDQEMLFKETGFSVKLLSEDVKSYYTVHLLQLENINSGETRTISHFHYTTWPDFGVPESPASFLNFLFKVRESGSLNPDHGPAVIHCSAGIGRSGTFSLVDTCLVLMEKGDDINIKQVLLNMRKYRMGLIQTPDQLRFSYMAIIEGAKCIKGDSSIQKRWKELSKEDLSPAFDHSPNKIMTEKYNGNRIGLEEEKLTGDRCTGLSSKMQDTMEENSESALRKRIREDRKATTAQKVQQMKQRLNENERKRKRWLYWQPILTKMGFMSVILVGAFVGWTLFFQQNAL
reported.metric: pKi
# log scale: pKi equals minus log10 of the concentration in mol/L

Ask | Quick check: pKi of CCc1cc(C[C@H](NC(C)=O)C(=O)NCCCCOc2cccc(O)c2C(=O)OC)ccc1N(C(=O)C(=O)O)c1ccccc1C(=O)O ?
Reply | 7.19

###

Target: Tyrosine-protein phosphatase non-receptor type 1 (Homo sapiens, UniProt P18031)
Sequence (P18031 whole entry): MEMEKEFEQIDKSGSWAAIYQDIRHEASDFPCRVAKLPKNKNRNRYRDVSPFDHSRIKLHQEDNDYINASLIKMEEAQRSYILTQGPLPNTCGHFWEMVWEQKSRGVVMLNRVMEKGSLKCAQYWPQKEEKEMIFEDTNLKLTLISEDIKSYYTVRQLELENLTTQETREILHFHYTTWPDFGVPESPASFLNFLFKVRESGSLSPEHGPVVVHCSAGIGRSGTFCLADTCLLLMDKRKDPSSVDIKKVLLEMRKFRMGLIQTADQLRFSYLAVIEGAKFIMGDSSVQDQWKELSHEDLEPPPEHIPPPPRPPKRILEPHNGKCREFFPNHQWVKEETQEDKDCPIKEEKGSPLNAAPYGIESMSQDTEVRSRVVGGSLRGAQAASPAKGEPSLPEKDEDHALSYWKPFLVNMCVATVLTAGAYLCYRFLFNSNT
Test: Inhibition of PTP1B
Measured Ki by item
Expressed in µM, but write only the number.

compound	Ki, µM
COC(=O)c1c(O)cccc1OCCCCNC(=O)[C@H](Cc1ccc(OC(C(=O)O)C(=O)NC2CC2)cc1)NC(=O)OC(C)(C)C (some centres not stated)	8.4

Now, please, on to the next compound.
Ask | Returns the measured Ki for the input compound. Input: Cc1sc(-c2cccc(NC3CCN(S(=O)(=O)Cc4ccccc4)CC3)c2)cc1C1CC(=O)NS1(=O)=O (configuration not stated)
Reply | 4.3

###

Molecular target: Tyrosine-protein phosphatase non-receptor type 1 (Homo sapiens, UniProt P18031)
The entries below come with measured IC50 values attached.
Express your answer in nM, writing the number without its unit.

compound	experimental.value
Cc1nc(-c2ccc(Cl)cc2)sc1CCc1cccc(C(O)(C(=O)O)C(F)(F)F)c1 (centres undefined)	3200
CCC(CC)c1ccc(N(Cc2cccc(-c3ccc(COc4ccc(C[C@H](NC(C)=O)C(=O)O)cc4)cc3)c2)C(C)C)cc1	16

Continue with the next compound.
Ask | Query: IC50; subject: Cc1ccccc1S(=O)(=O)N(Cc1ccc(C(=O)C(F)(F)P(=O)(O)O)cc1)Cc1ccc(C(=O)C(F)(F)P(=O)(O)O)cc1
Reply | 600
